Origin of values: patent US10947242B2

# target_or_test_system: Human recombinant PDE2A (hPDE2A) (Homo sapiens)
# Construct: His tag (inferred from metal chelate purification); made in house; host or cells: Sf9 insect cells (baculovirus)
# Sequence (O00408 whole entry): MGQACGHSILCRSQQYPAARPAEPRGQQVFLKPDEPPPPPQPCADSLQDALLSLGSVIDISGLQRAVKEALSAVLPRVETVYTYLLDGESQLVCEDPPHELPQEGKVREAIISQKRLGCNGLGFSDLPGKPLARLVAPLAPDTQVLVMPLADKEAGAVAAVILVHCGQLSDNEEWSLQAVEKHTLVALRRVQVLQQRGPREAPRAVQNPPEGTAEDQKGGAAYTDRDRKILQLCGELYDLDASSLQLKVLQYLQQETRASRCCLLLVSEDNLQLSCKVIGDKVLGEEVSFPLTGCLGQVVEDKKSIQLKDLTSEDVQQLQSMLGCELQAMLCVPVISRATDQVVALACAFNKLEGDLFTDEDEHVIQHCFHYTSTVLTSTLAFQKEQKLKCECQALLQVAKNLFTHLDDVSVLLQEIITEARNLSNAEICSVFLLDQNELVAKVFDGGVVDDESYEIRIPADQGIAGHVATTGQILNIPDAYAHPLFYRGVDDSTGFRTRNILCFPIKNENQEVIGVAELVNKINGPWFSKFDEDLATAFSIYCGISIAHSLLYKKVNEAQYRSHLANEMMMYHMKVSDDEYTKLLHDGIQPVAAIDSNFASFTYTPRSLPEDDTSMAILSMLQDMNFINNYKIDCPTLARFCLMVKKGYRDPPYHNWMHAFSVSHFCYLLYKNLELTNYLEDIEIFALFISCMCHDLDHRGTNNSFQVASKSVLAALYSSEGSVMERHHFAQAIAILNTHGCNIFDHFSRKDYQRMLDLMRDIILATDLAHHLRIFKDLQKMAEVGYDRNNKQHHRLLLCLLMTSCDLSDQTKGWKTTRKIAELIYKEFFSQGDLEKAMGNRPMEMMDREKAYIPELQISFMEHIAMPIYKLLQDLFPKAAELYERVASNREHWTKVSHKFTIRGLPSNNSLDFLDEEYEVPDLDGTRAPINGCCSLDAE
# measurement_description: In vitro assay PDE2A (SPA, 3H-cGMP hydrolysis)
# Assay type: biochemical
# particulars: human recombinant PDE2A; read-out: hPDE2A Emax
measurement_type: Emax (%)

Below, 8 molecules whose answers are already recorded.
Cc1csc(C(=O)N2CC[C@H](C)[C@@H](c3cc(C(F)F)nc4ncnn34)C2)c1 [Compound 213] : 28
COc1cccc2cc(C(=O)N3CC[C@@H](C)[C@H](c4cc(C(F)F)nc5ncnn45)C3)oc12 [Compound 105] : 101
C[C@@H]1CCN(C(=O)c2ccnc(Cl)c2)C[C@H]1c1cc(C(F)F)nc2ncnn12 [Compound 42] : 100
C[C@@H]1CCN(C(=O)c2ccc3ncsc3c2)C[C@H]1c1cc(C(F)F)nc2ncnn12 [Compound 228] : 100
C[C@@H]1CCN(C(=O)c2ccc3c(c2)OCCC3)C[C@H]1c1cc(C(F)F)nc2ncnn12 [Compound 96] : 100
C[C@@H]1CCN(C(=O)c2ccc3c(ccn3CCF)c2)C[C@H]1c1cc(C(F)F)nc2ncnn12 [Compound 89] : 104
Cc1cc(C(=O)N2CC[C@@H](C)[C@H](c3cc(C(F)F)nc4ncnn34)C2)cc(C(F)(F)F)n1 [Compound 132] : 101
Cc1cc([C@@H]2CN(C(=O)c3ccnc(Cl)c3F)CC[C@H]2C)n2ncnc2n1 [Compound 11] : 100

(a) CCCC[C@@H]1CCN(C(=O)c2cc(C)nc(C)c2)C[C@H]1c1cc(C(F)F)nc2ncnn12 (mixture of isomers) [Compound 44]
(b) C[C@]1(c2cc(C(F)F)nc3ncnn23)CCCN(C(=O)c2ccc3nccn3c2)C1 (single isomer, unassigned) [Compound 212]
Query string: Given a and given b , which shows the smaller recorded Emax? Answer by quoting the chosen item's label.
Result string: b
(b: 61%, a: 100%)

---

# target_or_test_system: Human recombinant PDE2A (hPDE2A) (Homo sapiens)
# Construct: His tag (inferred from metal chelate purification); made in house; host or cells: Sf9 insect cells (baculovirus)
# measurement_description: In vitro assay PDE2A (SPA, 3H-cGMP hydrolysis)
# Type: biochemical
# particulars: read-out: hPDE2A pIC50 (converted)
measurement_type: IC50 (nM)

Below, 8 molecules whose answers are already recorded.
C[C@@H]1CCN(C(=O)c2cn(C)cn2)C[C@H]1c1cc(C(F)F)nc2ncnn12 : 24.5
Cc1cnc(C(=O)N2CC[C@@H](C)[C@H](c3cc(C(F)F)nc4ncnn34)C2)cn1 : 214
O=C(c1ccc2cccn2c1)N1[C@H]2CC[C@H](c3cc(C(F)F)nc4ncnn34)[C@@H]1CC2 : 2.69
O=C(c1ccc2ncc(F)cc2c1)N1[C@H]2CC[C@H](c3cc(C(F)F)nc4ncnn34)[C@@H]1CC2 : 21.9
CC(C)c1n[nH]cc1C(=O)N1CC[C@@H](C)[C@H](c2cc(C(F)F)nc3ncnn23)C1 : 4.37
C[C@@H]1CCN(C(=O)c2cnc3ccccc3c2)C[C@H]1c1cc(C(F)F)nc2ncnn12 : 0.851
O=C(c1cc2n(n1)CCO2)N1[C@H]2CC[C@H](c3cc(C(F)F)nc4ncnn34)[C@@H]1CC2 : 437
COc1ccc(C(=O)N2[C@H]3CC[C@H](c4cc(C(F)F)nc5ncnn45)[C@@H]2CC3)cc1Cl : 4.27

(I) Cc1cc(C(=O)N2CC[C@@H](C)[C@H](c3cc(C(F)F)nc4ncnn34)C2)c(F)cn1
(II) C[C@@H]1CCN(C(=O)c2ccc3ocnc3c2)C[C@H]1c1cc(C(F)F)nc2ncnn12
(III) C[C@@H]1CCN(C(=O)c2cc(C#N)ccn2)C[C@H]1c1cc(C(F)F)nc2ncnn12
(IV) C[C@@H]1CCN(C(=O)c2ccc3ccccc3c2)C[C@H]1c1cc(C(F)F)nc2ncnn12
(V) C[C@@H]1CCN(C(=O)c2ccc3ncsc3c2)C[C@@]1(F)c1cc(C(F)F)nc2ncnn12
Query string: List items by IC50 in falling order. Please respond by ranking the labels in the order requested.
Result string: III, V, I, II, IV
(III: 89.1 nM, V: 14.8 nM, I: 3.16 nM, II: 1.12 nM, IV: 0.479 nM)
